Taken from patent US20250326779A1.

ASSAY_PROCEDURE: Solubility in FaSSIF
Type: physicochemical
RECORDED_CONDITIONS: 23 °C, thermodynamic from solid; FaSSIF pH 6.5, 5 mg/mL dose concentration, 2-hour incubation, ambient temperature
Method: Buffer Preparation: Fasted State Simulated Intestinal Fluid (FaSSIF): Simulated Intestinal Fluid (SIF) powder containing a complex of Taurocholate and Lecithin (4:1 molar ratio) was obtained from Biorelevant. […] The buffer was prepared with HPLC H2O. Test Compounds: Each test compound was placed in a vial containing approximately 7 mg of material. Aliquots were weighed out for each assay media at each time point to be analyzed. […]

SMILES_STRUCTURE | solubility at 2 h (µg/mL)
COC(=O)N[C@H](C(=O)N[C@@H](Cc1ccc(C#Cc2cnc(N3CC4CCC(C3)N4C3COC3)nc2)cc1)[C@H](CN(Cc1c(F)cc(-c2ccn(C(F)F)n2)cc1F)NC(=O)[C@@H](NC(=O)OC)C(C)(C)C(F)(F)F)OCOP(=O)(O)O)C(C)(C)C(F)(F)F | 580
